This document collects pIC50 values reported for JMJD2C (Homo sapiens).
pIC50: −log10 of the molar value.

Here's what some known entries look like.
Entry COc1nc(O)c2ccnc(-c3cn(C)cn3)c2n1 , pIC50 reported as 6.00 to 7.00

// pIC50 lookup, compound = Oc1nc(Oc2cnn([C@@H]3CCCN(Cc4ccccc4)C3)c2)nc2cnccc12 , result: ≥ 7.00

Reported pIC50 for COc1nc(O)c2ccncc2n1 [Example 8, 2-methoxypyrido[3,4-d]pyrimidin-4-ol] was 6.00 to 7.00

The compound listed as COc1ccc(Oc2nc(O)c3ccncc3n2)cc1 shows pIC50 equal to ≥ 7.00

Note to self: pIC50 recorded for Oc1nc(Oc2cnn([C@H]3CCN(c4ccccc4)C3)c2)nc2cnccc12 was ≥ 7.00

The compound Cn1cnc(-c2nccc3c(O)nc(OCc4ccccc4Cl)nc23)c1 showed pIC50 equal to ≥ 7.00

Lab note: measured pIC50 of Oc1nc(Oc2cnn(Cc3ccccc3F)c2)nc2cnccc12 was ≥ 7.00

The reported pIC50 of the compound Oc1nc(Oc2cnn([C@H]3CCN(c4ccc(Cl)cc4)C3)c2)nc2cnccc12 was ≥ 7.00

Please examine the following record next.
For reference, reported pIC50 for Oc1nc(Oc2cnn([C@@H]3CCCNC3)c2)nc2cnccc12 stands at ≥ 7.00

* * *

test system: KDM5A/B; test: In vitro cell-based assay: immuno-blot quantification of tri-methyl H3K4 in ZR-75-1 breast cancer cells; conditions: 72 hours, tri-methyl H3K4 level relative to GAPDH, percent of DMSO, read-out: Cellular IC50
Here the recorded IC50 is given for each entry.

Please review the following examples before continuing.
The recorded IC50 for Oc1nc(Oc2cnn(CCN3CCOCC3)c2)nc2cnccc12 is 0.1 to 1 µM

According to the records, this compound Cn1cnc(-c2nccc3c(O)nc(OCc4ccc(F)cc4)nc23)c1 displays IC50 of 1 to 10 µM

The compound identified as CC(=O)N1CCC[C@H](n2cc(Oc3nc(O)c4ccncc4n3)cn2)C1 registered its IC50 at 1 to 10 µM

# compound N#CCC(=O)N1CC[C@H](n2cc(Oc3nc(O)c4ccncc4n3)cn2)C1 ; its IC50 = > 10 µM

Form field IC50, entry CC(=O)N1CCC[C@@H](n2cc(Oc3nc(O)c4ccncc4n3)cn2)C1 : 1 to 10 µM

Next:
Noted for Oc1nc(Oc2cnn(Cc3ccccc3F)c2)nc2cnccc12 : its IC50 reads 0.1 to 1 µM

The recorded IC50 for entry Oc1nc(OCCc2ccccc2)nc2cnccc12 equals 1 to 10 µM

Measured IC50 of Oc1nc(Oc2cnn(C3CCCC3)c2)nc2cnccc12 : 1 to 10 µM

Query CCS(=O)(=O)N1CCC[C@H](n2cc(Oc3nc(O)c4ccncc4n3)cn2)C1 yields IC50 of 0.1 to 1 µM

* * *

test system: KDM5A/B; assay: In vitro cell-based assay: immuno-blot quantification of tri-methyl H3K4 in ZR-75-1 breast cancer cells; conditions: 72 hours, tri-methyl H3K4 level relative to GAPDH, percent of DMSO, read-out: Cellular IC50
Entries annotated with measured IC50

For orientation, consider the following solved cases.
response.value for CC(C)CCn1cc(Oc2nc(O)c3ccncc3n2)cn1 (field: IC50) = 1 to 10 µM

What the record says about Cn1cnc(-c2nccc3c(O)nc(OCC4CC4)nc23)c1 : IC50 is 1 to 10 µM

Item: Oc1nc(Oc2cnn([C@@H]3CCCN(c4ccc(F)cc4)C3)c2)nc2cnccc12 | IC50: 1 to 10 µM

Memo: Oc1nc(Oc2ccc(Cl)cc2)nc2cnccc12 , reported IC50: > 10 µM

Item: O=S(=O)(c1ccccc1)N1CC[C@H](n2cc(Oc3nc(O)c4ccncc4n3)cn2)C1 | IC50: 1 to 10 µM

More entries:
The compound CC(C)CCOc1nc(O)c2ccncc2n1 showed IC50 equal to > 10 µM

Kindly note the recorded IC50 for Oc1nc(OCC2CC2)nc2cnccc12 , which is > 10 µM

Please fill in: IC50 reported for CC(=O)N1CC[C@H](n2cc(Oc3nc(O)c4ccncc4n3)cn2)C1 = > 10 µM

The reported value for CCOc1nc(O)c2ccncc2n1 [Example 2, 2-ethoxypyrido[3,4-d]pyrimidin-4-ol] in terms of IC50 is > 10 µM

* * *

test system: KDM5A/B; test: In vitro cell-based assay: immuno-blot quantification of tri-methyl H3K4 in ZR-75-1 breast cancer cells; settings: 72 hours, tri-methyl H3K4 level relative to GAPDH, percent of DMSO, read-out: Cellular IC50
pIC50: −log10 of the molar value.
Below is a list of entries, each paired with its recorded pIC50 value.

The examples below pair each entry with its known result.
The reported value for O=C(c1ccccc1)N1CCC[C@H](n2cc(Oc3nc(O)c4ccncc4n3)cn2)C1 in terms of pIC50 is 5.00 to 6.00

Noted for Oc1nc(Oc2cnn(Cc3ccc(F)cc3)c2)nc2cnccc12 : its pIC50 reads 5.00 to 6.00

pIC50 measured on O=C(c1ccccc1)N1CC[C@H](n2cc(Oc3nc(O)c4ccncc4n3)cn2)C1 = < 5.00

Lab note: Oc1nc(Oc2cnn([C@H]3CCCN(Cc4ccccc4)C3)c2)nc2cnccc12 gave pIC50 of 5.00 to 6.00

GET /value?item= CC(C)(O)CCOc1nc(O)c2ccncc2n1 &field=pIC50 returns < 5.00

Others:
The reported pIC50 of the molecule CCC(c1ccccc1)n1cc(Oc2nc(O)c3ccncc3n2)cn1 (stereo not drawn) was 5.00 to 6.00

Measured pIC50, Oc1nc(Oc2cnn([C@@H]3CCN(Cc4ccccc4)C3)c2)nc2cnccc12 : 5.00 to 6.00

GET /value?item= C[C@H](c1ccccc1)n1cc(Oc2nc(O)c3ccncc3n2)cn1 &field=pIC50 returns 5.00 to 6.00

pIC50 recorded for this molecule, Oc1nc(Oc2cnn(C3CCNCC3)c2)nc2cnccc12 , is 5.00 to 6.00

* * *

Target: Jarid1A (Homo sapiens, UniProt P29375)
Sequence (P29375 1-1090): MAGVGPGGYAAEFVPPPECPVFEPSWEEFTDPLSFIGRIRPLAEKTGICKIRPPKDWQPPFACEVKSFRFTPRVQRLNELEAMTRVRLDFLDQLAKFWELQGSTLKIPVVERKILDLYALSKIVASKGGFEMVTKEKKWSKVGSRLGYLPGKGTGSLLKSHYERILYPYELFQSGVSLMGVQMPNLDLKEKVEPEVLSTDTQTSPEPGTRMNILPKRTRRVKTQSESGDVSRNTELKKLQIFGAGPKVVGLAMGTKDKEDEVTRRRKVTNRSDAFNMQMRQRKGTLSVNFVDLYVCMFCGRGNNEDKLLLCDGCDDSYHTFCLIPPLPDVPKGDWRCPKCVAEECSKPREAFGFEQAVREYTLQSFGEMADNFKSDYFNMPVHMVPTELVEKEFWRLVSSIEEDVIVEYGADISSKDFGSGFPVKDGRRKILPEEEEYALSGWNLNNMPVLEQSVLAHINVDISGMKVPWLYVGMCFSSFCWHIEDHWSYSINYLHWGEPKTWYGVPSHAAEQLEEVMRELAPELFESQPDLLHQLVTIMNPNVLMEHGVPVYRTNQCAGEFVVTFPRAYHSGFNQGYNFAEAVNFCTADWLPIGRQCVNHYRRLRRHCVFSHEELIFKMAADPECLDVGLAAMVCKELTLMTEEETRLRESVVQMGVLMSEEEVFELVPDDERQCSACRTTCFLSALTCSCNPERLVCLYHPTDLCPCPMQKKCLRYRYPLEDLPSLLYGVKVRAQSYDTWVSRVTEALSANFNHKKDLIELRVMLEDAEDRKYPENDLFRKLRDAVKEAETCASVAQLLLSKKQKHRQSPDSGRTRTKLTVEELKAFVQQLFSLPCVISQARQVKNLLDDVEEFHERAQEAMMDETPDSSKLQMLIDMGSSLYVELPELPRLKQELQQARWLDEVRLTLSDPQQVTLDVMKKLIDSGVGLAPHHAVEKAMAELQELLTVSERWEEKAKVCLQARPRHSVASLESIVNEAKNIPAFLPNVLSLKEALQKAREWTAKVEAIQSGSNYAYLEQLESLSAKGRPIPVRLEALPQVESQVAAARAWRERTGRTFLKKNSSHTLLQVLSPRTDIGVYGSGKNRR
pIC50: −log10 of the molar value.
Quantity Name: pIC50

See these solved cases before continuing.
The compound listed as CC(C)(O)CCOc1nc(O)c2ccncc2n1 [Example 24] has a reported pIC50 of ≥ 7.00

# pIC50 (compound: CC(C)CCn1cc(Oc2nc(O)c3ccnc(-c4cn(C)cn4)c3n2)cn1 [Example 80] ) is ≥ 7.00

Next:
compound Oc1nc(Oc2cnn(C3CCCC3)c2)nc2cnccc12 [Example 56] , pIC50 observed: ≥ 7.00

// CC(C)OCCOc1nc(O)c2ccncc2n1 [Example 29] : pIC50 value = 6.00 to 7.00

Lab note: measured pIC50 of Oc1nc(OCc2ccccc2Cl)nc2cnccc12 [Example 171] was 5.00 to 6.00
